- System: KM12
- experiment: NCI tumour cell line growth inhibition, 48 h
Active and inactive are the calls of the source. Rule as the data show it: active = GI50 up to about 1.1 µM and inactive = higher.
Can you answer with just one of these options? active, inactive

Exam item: What outcome does the record of this test show for CCOc1cc(NC(C)=O)ccc1C(=O)N/N=C/c1ccco1 ?
Marked response: inactive

Exam item: Note, next up: C=C1C(C(=O)O)C1C(=O)O (centres undefined)
Marked response: inactive

Exam item: Note, next up: O=C1c2cccc3cc([N+](=O)[O-])cc(c23)C(=O)N1Nc1ccc([N+](=O)[O-])cc1[N+](=O)[O-]
Marked response: inactive

Exam item: Note, next up: C[C@H](C(O)CC(=O)C(C)(C)O)[C@H]1CC[C@@]2(C)[C@@H]3CC[C@H]4C(C)(C)[C@@H](OC5OC(COC6OC(CO)C(O)C(O)C6O)C(O)C(O)C5O)CC[C@]4(C)C3=CC[C@]12C (some centres undefined)
Marked response: inactive

Exam item: Note, next up: Cn1c(=N)n[n+]([O-])c2ccccc21
Marked response: inactive

---

- System: HT-29
- experiment: NCI tumour cell line growth inhibition, 48 h
Calls of active or inactive are those of the source. No stated cut-off is given here; in the data, active = GI50 up to about 1.1 µM and inactive = higher.
Can you answer with just one of these options? 1 for active, 0 for inactive

Past entries and their recorded results:
compound: CN(C)c1ccc(/C=c2/c3ccccc3n3nc4ccccc4c23)cc1
tgt: HT-29
class name: 0
--
compound: C[C@]12C=CC(=O)C=C1CC[C@@H]1[C@@H]2CC[C@]2(C)OC(=O)CC[C@@H]12
tgt: HT-29
class name: 0
--
compound: C/C(=N/N)c1sc(-c2nc(C)c(/C(C)=N\N)s2)nc1C
tgt: HT-29
class name: 0
--
compound: C/C(=N\NC(=S)N1CCN(c2ccccn2)CC1)c1ncccn1
tgt: HT-29
class name: 1
--
compound: COc1cc2c(Cc3cc(OCc4ccccc4)ccc3N)nccc2c(OC)c1OC
tgt: HT-29
class name: 0
--
compound: CC1(C)SCc2nc3ccccc3n21
tgt: HT-29
class name: 0
--
compound: COC1(OC)c2no[n+]([O-])c2C(OC)(OC)c2c1no[n+]2[O-]
tgt: HT-29
class name: 0
--
compound: O=C1CCC2CCc3cccc4oc1c2c34 (stereo not drawn)
tgt: HT-29
class name: 0

Exam item: What outcome does the record of this test show for CN(C)c1ccc(C2ON=C(c3ccccc3)N2C23CC4CC(CC(C4)C2)C3)cc1 (stereo not drawn) ?
Marked response: 0

Exam item: Note, next up: COc1ccc(N2C(=O)CSC2c2c[nH]c3ccccc23)cc1 (stereo not drawn)
Marked response: 0

Exam item: Note, next up: O=C(Nc1ccc(Cl)c(Cl)c1)OCCN1c2ccccc2Sc2ccccc21
Marked response: 0

Exam item: Note, next up: CCOC(=O)C(C(N)=O)C1=Nc2cc([N+](=O)[O-])ccc2N/C1=C\C(=O)c1ccccc1 (stereo not drawn)
Marked response: 0

Exam item: Note, next up: O=C(CC(=O)N1N=C(N2c3ccccc3Sc3ccccc32)CC1c1ccccc1)Nc1ccccc1Cl (stereo not drawn)
Marked response: 0

Exam item: Note, next up: Cn1c(=O)c2ccc(-c3ccc(Br)cc3)nc2n(C)c1=O
Marked response: 0

Exam item: Note, next up: Nc1ccc2c(c1)CC1c3ccccc3C(C2)c2ccccc21
Marked response: 0

Exam item: Note, next up: O=c1[nH]nc(-c2ccccc2)n1/N=C\CC/C=N\n1c(-c2ccccc2)n[nH]c1=O
Marked response: 0

Exam item: Note, next up: O=C(CN(c1ccccc1)c1ccccc1)n1nnc2ccccc21
Marked response: 0

Exam item: Note, next up: CNC(=O)CN(CC(N)=O)C(=O)NC
Marked response: 0

Exam item: Note, next up: CCOC(C[C@H](O)[C@H]1COC(=S)S1)OCC
Marked response: 0

Exam item: Note, next up: CCOC(=O)NC1C2CC(=O)C(O2)C1OCc1ccccc1 (stereo not drawn)
Marked response: 0

Exam item: Note, next up: C=C1C[C@@H]2O[C@H]3[C@H]4[C@@H](C[C@@H](C)[C@@H](OC(C)=O)[C@H]42)[C@@H](C)CO[C@@]3(C)[C@H](OC(=O)CCCCCCC)C[C@H]1O
Marked response: 0

Exam item: Note, next up: O=C(CCc1ccc(O)cc1)NCCc1ccc(O)cc1
Marked response: 0

Exam item: Note, next up: O=C(COc1ccc(OCC(=O)N2C(=O)CN(c3ccccc3)C2=S)cc1)N1C(=O)CN(c2ccccc2)C1=S
Marked response: 0

Exam item: Note, next up: N#CC(C#N)=Cc1c[nH]c(=O)[nH]c1=O
Marked response: 0

Exam item: Note, next up: CCOC(=O)c1cc(Br)c(-c2cc(C)co2)[nH]1
Marked response: 0

Exam item: Note, next up: CC(=O)NNc1nc(C)c(C(=O)NNC(=O)C(=O)Nc2nc3ccc([N+](=O)[O-])cc3s2)s1
Marked response: 0

Exam item: Note, next up: O=C(NCCCCCCNC(=O)n1cc(F)c(=O)[nH]c1=O)NCCCOCCOCCCNC(=O)C(O)C(O)C(O)C(O)CO (stereo not drawn)
Marked response: 0

Exam item: Note, next up: Nc1n2nc(-c3ccccc3)sc2n[n+]1CC(=O)c1ccccc1
Marked response: 0

Exam item: Note, next up: O=C(O)CC(O)(c1ccccc1C(=O)O)c1cccc2ccccc12 (stereo not drawn)
Marked response: 0

Exam item: Note, next up: CCCC(=O)c1c(NOC2OCC(OC(C)=O)C(OC(C)=O)C2OC(C)=O)nc(OC)n(C)c1=O (stereo not drawn)
Marked response: 0

---

GI50 by entry:
- Tested on: HOP-62
- experiment: NCI tumour cell line growth inhibition, 48 h
The source made the active and inactive calls. No stated cut-off is given here; in the data, active = GI50 up to about 1.1 µM and inactive = higher.

compound: COc1cccc2ccc3c(c12)C(=O)OC31CCc2c(C)cccc21 (stereo not given)
readout value: 18.5 µM (inactive)
//
compound: O=C1NCCCc2nonc21
readout value: > 100 µM (inactive)
//
compound: COc1ccc(C2Oc3cc(OC)c(O)c(C)c3[C@H]2C)cc1 (stereo not given in full)
readout value: > 100 µM (inactive)
//
compound: O=C(Cc1csc(N/N=C2\C(=O)Nc3ccccc32)n1)Nc1ccccc1
readout value: 18.1 µM (inactive)
//
compound: COc1ccccc1NC(=O)/C(Cc1nc2ccc([N+](=O)[O-])cc2nc1O)=N\NC(=O)C[N+](C)(C)C
readout value: > 100 µM (inactive)

Exam item: So what does the record say about GI50 for N#CC(C#N)=Cc1c[nH]c(=O)[nH]c1=O ?
Marked response: > 100 µM (inactive)

---

- System: UO-31
- experiment: NCI tumour cell line growth inhibition, 48 h
The source made the active and inactive calls. No stated cut-off is given here; in the data, active = GI50 up to about 1.1 µM and inactive = higher.
GI50 by entry:

Exam item: So what does the record say about GI50 for CC1C(c2ccccc2)=CCON1c1ccccc1 (configuration not stated) ?
Marked response: > 100 µM (inactive)

---

GI50 by entry:
- Tested on: HT-29
- experiment: NCI tumour cell line growth inhibition, 48 h
Activity calls are given as the source filed them. Rule as the data show it: active = GI50 up to about 1.1 µM and inactive = higher.

molecule: COc1ccc(-c2cc(-c3ccco3)c(C#N)c(=O)n2C2OC(OC(=O)c3ccccc3)C(OC(=O)c3ccccc3)C2OC(=O)c2ccccc2)cc1 (stereo not drawn)
GI50: > 100 µM (inactive)
--
molecule: Cn1ccnc1Oc1ccc(Cl)cc1
GI50: 13.7 µM (inactive)
--
molecule: COC(=O)C1=CC2CCCC1(O)C(C(C)=O)C2 (stereo not drawn)
GI50: > 100 µM (inactive)
--
molecule: CNC(=S)Nc1ccc(OC)c2ccccc12
GI50: > 10 µM (inactive)

Exam item: So what does the record say about GI50 for N=C(N)c1ccc(/C=C/c2ccc(C(=N)N)cc2)cc1 ?
Marked response: 93.1 µM (inactive)

Exam item: Note, next up: CC(=O)O[C@H]1CCC2[C@@H]3CC[C@]4(C)CC(=O)C=C[C@]4(C)C3CC[C@@]21C (stereo partly drawn)
Marked response: 18.1 µM (inactive)

Exam item: Note, next up: CCNc1ncnc2sc(SCc3ccccc3)nc12
Marked response: 58.1 µM (inactive)

Exam item: Note, next up: CC(=O)OCC1OC(n2c(C)c(C)cc(C#N)c2=S)C(OC(C)=O)C(OC(C)=O)C1OC(C)=O (stereo not drawn)
Marked response: > 100 µM (inactive)

Exam item: Note, next up: NC(Cc1ccccc1)(C(=O)O)C(=O)O
Marked response: > 100 µM (inactive)

Exam item: Note, next up: Cc1ccc(S(=O)(=O)N(CC(O)COc2ccccc2)c2c(F)c(F)c(F)c(F)c2F)cc1 (stereo not drawn)
Marked response: 16.2 µM (inactive)

Exam item: Note, next up: Cc1nn(CN2CCN(C)CC2)c(=S)n1/N=C/c1ccc(-c2ccc(Cl)cc2Cl)o1
Marked response: 89.1 µM (inactive)

Exam item: Note, next up: O=C(O)c1ccccc1Cc1ccco1
Marked response: > 100 µM (inactive)

Exam item: Note, next up: S=C(NCc1ccccc1)c1nc[nH]c1C(=S)NCc1ccccc1
Marked response: 6.84 µM (inactive)
